For each entry below, report its TD50 at 1 min value.
Experiment: Neurotoxicity in ip dosed albino mouse during 1 min by rotarod test
Assay type: toxicity, organism-based
Conditions: in vivo
Give bare numbers, in µmol/kg.

| compound | endpoint-name | number |
| --- | --- | --- |
| O=C(/C=C/c1ccccc1)Nc1nc2ccccc2s1 | TD50 at 1 min | 832 |
| CC(=O)N1N=C(Nc2nc3ccc(Cl)cc3s2)CC1c1ccc(O)cc1 (stereo not drawn) | TD50 at 1 min | 210 |
| COc1ccc(C2CC(Nc3nc4ccccc4s3)=NN2C(C)=O)cc1 (stereo not drawn) | TD50 at 1 min | 369 |

Here are 5 compounds. What values of TD50 at 1 min were reported for them?
1. CC(=O)N1N=C(Nc2nc3ccc([N+](=O)[O-])cc3s2)CC1c1ccco1 (stereo not drawn)
2. CC(=O)N1N=C(Nc2nc3ccc(C)cc3s2)CC1c1ccccc1 (stereo not drawn)
3. COc1ccc(C2CC(Nc3nc4ccccc4s3)=NN2C(C)=O)cc1O (stereo not drawn)
4. O=C1NC(=O)C(c2ccccc2)(c2ccccc2)N1 [PHENYTOIN]
5. CC(=O)N1N=C(Nc2nc3ccc(C)cc3s2)CC1c1ccco1 (stereo not drawn)

-- reply
1: 355; 2: 265; 3: 382; 4: 110; 5: 243
